target: VHL (Homo sapiens); assay: Fluorescence polarization competition assay (HIF-1α peptide FP displacement); settings: IC50 (μM) 1% DMSO, 1% DMSO
measureName: IC50 (µM)

Worked examples follow.
// query Give its IC50 value. Item: Cc1cc(CC(=O)N2C[C@H](O)C[C@H]2C(=O)NCc2ccc(-c3c(C)n[nH]c3C)cc2)on1 [VL152]
// result 32

// query Give its IC50 value. Item: O=C(NCc1ccc(Cl)cc1)[C@@H]1C[C@@H](O)CN1C(=O)c1cccc2[nH]cnc12 [VL125]
// result 568

// query Give its IC50 value. Item: O=C(NCc1ccc(Cl)cc1)[C@@H]1C[C@@H](O)CN1C(=O)c1ccccc1Cl [VL073]
// result 46

// query Give its IC50 value. Item: O=C(NCc1ccc(Cl)cc1)[C@@H]1C[C@@H](O)CN1C(=O)c1cccc(-c2cnco2)c1 [VL122]
// result 220

I = COCc1cn(CC(=O)N2C[C@H](O)C[C@H]2C(=O)NCc2ccc(-c3ccccc3)cc2)nn1 [VL137]
II = O=C(NCc1ccc(Cl)cc1)[C@@H]1C[C@@H](O)CN1C(=O)c1cccc2cccnc12 [VL129]
// query Smaller IC50 value? Options are I and II Refer to your chosen entry by its label in the reply.
// result I
(I: 128 µM, II: 493 µM)

###

biological target: VHL (Homo sapiens, UniProt P40337); experiment: Fluorescence polarization competition assay (HIF-1α peptide FP displacement); details: IC50 (μM) 10% DMSO, 10% DMSO
measureName: IC50 (µM)

Worked examples follow.
// query Notebook: pull reported IC50 for VHL (Homo sapiens, UniProt P40337), entry O=C(NCc1ccc(Cl)cc1)[C@@H]1C[C@@H](O)CN1C(=O)CN1C(=O)CSC1=S
// result 347

// query Notebook: pull reported IC50 for VHL (Homo sapiens, UniProt P40337), entry Cc1cc(CC(=O)N2C[C@H](O)C[C@H]2C(=O)NCc2ccc(C#N)cc2)on1
// result 18.2

// query Notebook: pull reported IC50 for VHL (Homo sapiens, UniProt P40337), entry O=C(NCc1ccc(Cl)cc1)[C@@H]1C[C@@H](O)CN1C(=O)c1ccc(Cl)cc1Br
// result 15.5

// query Notebook: pull reported IC50 for VHL (Homo sapiens, UniProt P40337), entry Cc1cc(CC(=O)N2C[C@H](O)C[C@H]2C(=O)NCc2cccc(-c3scnc3C)c2)on1
// result 17

// query Notebook: pull reported IC50 for VHL (Homo sapiens, UniProt P40337), entry COc1cccc(C(=O)N2C[C@H](O)C[C@H]2C(=O)NCc2ccc(Cl)cc2)c1
// result 26.3

// query Notebook: pull reported IC50 for VHL (Homo sapiens, UniProt P40337), entry Cc1cc(CC(=O)N2C[C@H](O)C[C@H]2C(=O)NCc2ccc(C(=O)O)cc2)on1
// result 129

P = O=C(NCc1ccc(Cl)cc1)[C@@H]1C[C@@H](O)CN1C(=O)c1cccc(-c2cnco2)c1
Q = O=C(NCc1ccc(Cl)cc1)[C@@H]1C[C@@H](O)CN1C(=O)c1ccc(Cl)cc1
// query Smaller IC50 value? Options are P and Q Refer to your chosen entry by its label in the reply.
// result Q
(Q: 42.9 µM, P: 102 µM)

1 = Cc1cc(CC(=O)N2C[C@H](O)C[C@H]2C(=O)NCc2ccncc2)on1
2 = COc1ccc(C(=O)N2C[C@H](O)C[C@H]2C(=O)NCc2ccc(Cl)cc2)cc1OC
// query Hi there! Just curious which has the higher IC50 between 1 and 2 . Refer to your chosen entry by its label in the reply.
// result 1

Value source: patent US20190127359A1
